System under test: UniProtKB P12497
Assay explanation: biochemical
Type: biochemical
Condition parameters: Table 1; 3′-processing; read-out: IC50 Values 3′-Processing
Each entry below carries its recorded IC50.
Property label: IC50 (µM)

{"columns": ["Smiles repr", "Units", "Value reported"],
 "data": [
  ["O=C(NCc1ccc(F)c(F)c1)c1c(O)c2cccnc2n(O)c1=O", "µM", 3.6],
  ["O=C(NCc1ccc(F)cc1F)c1cc2cccc(O)c2n(O)c1=O", "µM", 43],
  ["O=C(NCc1ccc(F)cc1)c1cc2cccnc2n(O)c1=O", "µM", 8.9],
  ["O=C(NCc1ccc(F)c(Cl)c1)c1cc2cccnc2n(O)c1=O", "µM", 9.4],
  ["O=C(NCc1ccc(F)c(Cl)c1)c1c(O)c2cccnc2n(O)c1=O", "µM", 4.7],
  ["O=C(NCc1ccc(F)cc1F)c1c(O)c2cccnc2n(O)c1=O", "µM", 1.2]
]}
